Data provenance: ChEMBL document CHEMBL5724914

settings: human gut metagenome, 24 h, 2 µM; also: call rule not given here
Measurement name: Bacterial Biotransformation

# example entries with known answers
Compound	Measurement name	Obs value
CN(C)CCC=C1c2ccccc2C=Cc2ccccc21	Bacterial Biotransformation	Compound NOT metabolized
CC(O)(CS(=O)(=O)c1ccc(F)cc1)C(=O)Nc1ccc(C#N)c(C(F)(F)F)c1 (stereo not drawn) [BICALUTAMIDE]	Bacterial Biotransformation	Compound NOT metabolized
CCN(CC)C(C)CN1c2ccccc2Sc2ccccc21 (stereo not drawn)	Bacterial Biotransformation	Compound metabolized
COc1ccc2[nH]c([S+]([O-])Cc3ncc(C)c(OC)c3C)nc2n1 (stereo not drawn)	Bacterial Biotransformation	Compound metabolized
COc1c(C)c2c(c(O)c1C/C=C(\C)CCC(=O)OCCN1CCOCC1)C(=O)OC2 [MYCOPHENOLATE MOFETIL]	Bacterial Biotransformation	Compound metabolized

Please give the measured Bacterial Biotransformation for this compound: `COc1c2occc2cc2ccc(=O)oc12`
Compound metabolized

# input compound: `Cc1ccc(-c2cc(C(F)(F)F)nn2-c2ccc(S(N)(=O)=O)cc2)cc1` ; wanted: its Bacterial Biotransformation
Compound NOT metabolized

Given CCN(CC)CCNC(=O)c1cc(Cl)c(N)cc1OC [METOCLOPRAMIDE] , state its recorded Bacterial Biotransformation.
Compound NOT metabolized

Which Bacterial Biotransformation value belongs to CN1C[C@H](C(=O)N[C@]2(C)O[C@@]3(O)[C@@H]4CCCN4C(=O)[C@H](Cc4ccccc4)N3C2=O)C=C2c3cccc4[nH]cc(c34)C[C@H]21.CN1C[C@H](C(=O)N[C@]2(C)O[C@@]3(O)[C@@H]4CCCN4C(=O)[C@H](Cc4ccccc4)N3C2=O)C=C2c3cccc4[nH]cc(c34)C[C@H]21.O=C(O)C(O)C(O)C(=O)O [ERGOTAMINE TARTRATE] ?
Compound NOT metabolized

Please give the measured Bacterial Biotransformation for this compound: NS(=O)(=O)c1cc2c(cc1Cl)N=C(CSCc1ccccc1)NS2(=O)=O [BENZTHIAZIDE]
Compound NOT metabolized

Field request: Bacterial Biotransformation | item: `CCOc1ccc(NC(C)=O)cc1`
Compound NOT metabolized

Recorded Bacterial Biotransformation for `Fc1ccc([C@@H]2CCNC[C@H]2COc2ccc3c(c2)OCO3)cc1` , please?
Compound metabolized

I'd like to know its Bacterial Biotransformation. The compound in question is `Nc1c2c(nc3ccccc13)CCCC2`
Compound metabolized
